Molecular target: human TLR8 (Homo sapiens (Human), UniProt Q9NR97)
Sequence (Q9NR97 27-1041): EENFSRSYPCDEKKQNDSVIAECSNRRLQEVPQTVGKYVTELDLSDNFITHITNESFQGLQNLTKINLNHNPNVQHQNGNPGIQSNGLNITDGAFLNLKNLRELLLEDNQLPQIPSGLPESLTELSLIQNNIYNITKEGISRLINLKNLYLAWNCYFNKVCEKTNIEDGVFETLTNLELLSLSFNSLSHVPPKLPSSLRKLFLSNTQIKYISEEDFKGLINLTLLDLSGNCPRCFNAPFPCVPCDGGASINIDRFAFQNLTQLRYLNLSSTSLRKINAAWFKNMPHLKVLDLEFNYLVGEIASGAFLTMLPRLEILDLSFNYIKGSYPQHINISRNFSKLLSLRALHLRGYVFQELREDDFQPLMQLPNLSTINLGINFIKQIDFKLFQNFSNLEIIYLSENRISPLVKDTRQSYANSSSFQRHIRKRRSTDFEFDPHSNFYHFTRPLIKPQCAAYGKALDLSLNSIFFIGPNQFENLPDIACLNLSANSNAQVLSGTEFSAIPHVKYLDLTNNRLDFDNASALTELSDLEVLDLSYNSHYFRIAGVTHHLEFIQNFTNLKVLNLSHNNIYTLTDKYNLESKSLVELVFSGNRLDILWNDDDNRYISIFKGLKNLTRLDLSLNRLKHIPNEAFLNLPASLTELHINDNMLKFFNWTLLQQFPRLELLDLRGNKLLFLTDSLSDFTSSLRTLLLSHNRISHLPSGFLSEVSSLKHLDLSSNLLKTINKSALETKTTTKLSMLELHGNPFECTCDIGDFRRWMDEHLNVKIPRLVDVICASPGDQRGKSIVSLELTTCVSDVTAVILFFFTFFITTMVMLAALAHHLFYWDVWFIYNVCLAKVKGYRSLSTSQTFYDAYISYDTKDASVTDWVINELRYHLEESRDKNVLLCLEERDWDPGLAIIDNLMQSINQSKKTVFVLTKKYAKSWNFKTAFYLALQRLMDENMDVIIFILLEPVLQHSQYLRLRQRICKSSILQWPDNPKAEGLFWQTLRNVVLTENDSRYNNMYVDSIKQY
Experiment: TLR8 inhibition reporter assay (HEK-Blue SEAP);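 also: SEAP driven by IFN-β minimal promoter with five NF-κB and AP-1 sites, compounds tested 0.05 nM to 50 µM, 22 h incubation, inhibition relative to agonist plus DMSO wells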
Conditions: read-out: TLR8 IC50; HEK-Blue cells overexpressing human TLR8, R848 15.9 μM stimulation, SEAP reporter
pIC50: −log10 of the molar value.
MEASURE: pIC50

| COMPOUND | QUANTITATIVE_RESULT |
| --- | --- |
| COc1cc(-c2[nH]c3cnc(C4CCC(NC(C)C)CC4)c(F)c3c2C(C)C)cn2ncnc12 (stereo not shown) [Example 159] | 8.35 |

(a) COc1cc(-c2[nH]c3cnc(N4CCN(C(C)C)C[C@H]4C)c(F)c3c2C(C)C)cn2ncnc12
(b) Cc1c(-c2[nH]c3cnc(N4CCN(CC(=O)N(C)C)CC4)c(C)c3c2C(C)C)cn2ncnc2c1C
stdin: Field: entry with larger pIC50 (options a / b ). The response must carry the label of the picked entry.
stdout: b
(b: 9.14, a: 8.03)
